# System: PC-3
# experiment: Growth inhibition of human PC3 cells by sulforhodamine B assay
# Format: functional
# test-parameters: read-out: LC50 (the source's name)
attribute-measured: CC50

Entry "CC1(C)C[C@@H](O)[C@]2(C(=O)O)CC[C@]3(C)C(=CC[C@@H]4[C@@]5(C)C/C(=C\C=C\c6ccccc6)C(=O)C(C)(C)[C@@H]5CC[C@]43C)[C@@H]2C1" — recorded CC50 = 63.7 µM

Briefly, CC50 measured for "CC(C)=CC(=O)O[C@@H]1CC(C)(C)C[C@H]2C3=CC[C@@H]4[C@@]5(C)CC[C@H](O)C(C)(C)[C@@H]5CC[C@@]4(C)[C@]3(C)CC[C@@]12C(=O)O" : 64 µM

Summary for this molecule, "CC(C)=CC(=O)O[C@@H]1CC(C)(C)C[C@H]2C3=CC[C@@H]4[C@@]5(C)CCC(=O)C(C)(C)[C@@H]5CC[C@@]4(C)[C@]3(C)CC[C@@]12C(=O)O" : CC50 is > 100 µM

The molecule "C/C=C(/C)C(=O)O[C@@H]1CC(C)(C)C[C@H]2C3=CC[C@@H]4[C@@]5(C)CCC(=O)C(C)(C)[C@@H]5CC[C@@]4(C)[C@]3(C)CC[C@@]12C(=O)O" showed CC50 equal to > 100 µM

The reported value for "C/C=C(/C)C(=O)O[C@@H]1CC(C)(C)C[C@H]2C3=CC[C@@H]4[C@@]5(C)CC[C@H](O)C(C)(C)[C@@H]5CC[C@@]4(C)[C@]3(C)CC[C@@]12C(=O)O" in terms of CC50 is 6.01 µM

----------
# Test system: SNB-75
# experiment: Growth inhibition of human SNB75 cells by sulforhodamine B assay
# Type: functional
# test-parameters: read-out: pLC50 (the source's name) (converted)
attribute-measured: CC50

So for "CC1(C)C[C@@H](O)[C@]2(C(=O)O)CC[C@]3(C)C(=CC[C@@H]4[C@@]5(C)C/C(=C\C=C\c6ccccc6)C(=O)C(C)(C)[C@@H]5CC[C@]43C)[C@@H]2C1" , the logged CC50 turned out to be 63.1 µM

Value of CC50 reported for the compound "CC(C)=CC(=O)O[C@@H]1CC(C)(C)C[C@H]2C3=CC[C@@H]4[C@@]5(C)CCC(=O)C(C)(C)[C@@H]5CC[C@@]4(C)[C@]3(C)CC[C@@]12C(=O)O" is > 100 µM

The compound listed as "CC(C)=CC(=O)O[C@@H]1CC(C)(C)C[C@H]2C3=CC[C@@H]4[C@@]5(C)CC[C@H](O)C(C)(C)[C@@H]5CC[C@@]4(C)[C@]3(C)CC[C@@]12C(=O)O" has a reported CC50 of > 100 µM

Note to self: CC50 recorded for "C/C=C(/C)C(=O)O[C@@H]1CC(C)(C)C[C@H]2C3=CC[C@@H]4[C@@]5(C)CCC(=O)C(C)(C)[C@@H]5CC[C@@]4(C)[C@]3(C)CC[C@@]12C(=O)O" was > 100 µM

For record "C/C=C(/C)C(=O)O[C@@H]1CC(C)(C)C[C@H]2C3=CC[C@@H]4[C@@]5(C)CC[C@H](O)C(C)(C)[C@@H]5CC[C@@]4(C)[C@]3(C)CC[C@@]12C(=O)O" the listed CC50 is > 100 µM

----------
# Tested on: MDA-MB-435
# experiment: Growth inhibition of human MDA-MB-435 cells assessed as cell growth at 10 uM by sulforhodamine B assay
# Assay type: functional
# test-parameters: read-out: Activity
attribute-measured: growth at 10 µM (%)
Quick note: give the figure in %, leave out the unit.

Entry under test: "CC1(C)C[C@@H](O)[C@]2(C(=O)O)CC[C@]3(C)C(=CC[C@@H]4[C@@]5(C)CC[C@H](O)C(C)(C)[C@@H]5CC[C@]43C)[C@@H]2C1" . Its growth at 10 µM was 116

Short answer for CC(C)=CC(=O)O[C@@H]1CC(C)(C)C[C@H]2C3=CC[C@@H]4[C@@]5(C)CC[C@H](O)C(C)(C)[C@@H]5CC[C@@]4(C)[C@]3(C)CC[C@@]12C(=O)O [Reduced Lantadene B] : growth at 10 µM was 95.3

Short answer for "CC1(C)C[C@@H](O)[C@]2(C(=O)O)CC[C@]3(C)C(=CC[C@@H]4[C@@]5(C)C/C(=C\C=C\c6ccccc6)C(=O)C(C)(C)[C@@H]5CC[C@]43C)[C@@H]2C1" : growth at 10 µM was 72.3

----------
For each of the compounds below, state its growth at 0.1 µM.
# Tested on: SN12C
# experiment: Growth inhibition of human SN12C cells assessed as cell growth at 10^-7 M by sulforhodamine B assay
# Assay type: functional
# test-parameters: read-out: Activity
Quick reminder: number only, in %, skip the unit.

Note to self: growth at 0.1 µM of "CC1(C)C[C@@H](O)[C@]2(C(=O)O)CC[C@]3(C)C(=CC[C@@H]4[C@@]5(C)C/C(=C\C=C\c6ccccc6)C(=O)C(C)(C)[C@@H]5CC[C@]43C)[C@@H]2C1" with SN12C was 98

Short answer on SN12C for "CC(C)=CC(=O)O[C@@H]1CC(C)(C)C[C@H]2C3=CC[C@@H]4[C@@]5(C)CCC(=O)C(C)(C)[C@@H]5CC[C@@]4(C)[C@]3(C)CC[C@@]12C(=O)O" , growth at 0.1 µM: 96

Item C/C=C(/C)C(=O)O[C@@H]1CC(C)(C)C[C@H]2C3=CC[C@@H]4[C@@]5(C)CCC(=O)C(C)(C)[C@@H]5CC[C@@]4(C)[C@]3(C)CC[C@@]12C(=O)O [LANTADENE A] was tested on SN12C; the reported growth at 0.1 µM is 95

Record CC(C)=CC(=O)O[C@@H]1CC(C)(C)C[C@H]2C3=CC[C@@H]4[C@@]5(C)CC[C@H](O)C(C)(C)[C@@H]5CC[C@@]4(C)[C@]3(C)CC[C@@]12C(=O)O [Reduced Lantadene B] ; system SN12C; growth at 0.1 µM = 96

// returns growth at 0.1 µM for C/C=C(/C)C(=O)O[C@@H]1CC(C)(C)C[C@H]2C3=CC[C@@H]4[C@@]5(C)CC[C@H](O)C(C)(C)[C@@H]5CC[C@@]4(C)[C@]3(C)CC[C@@]12C(=O)O [Reduced Lantadene A] with SN12C; value = 92

----------
# System: CAKI-1
# experiment: Growth inhibition of human CAKI-1 cells assessed as growth inhibition at 10 uM by sulforhodamine B assay
# Type: functional
# test-parameters: read-out: GI
What inhibition of growth at 10 µM was measured for each of the following?
Write the value in % as a bare number.

Field inhibition of growth at 10 µM (entry "CC1(C)C[C@@H](O)[C@]2(C(=O)O)CC[C@]3(C)C(=CC[C@@H]4[C@@]5(C)CCC(=O)C(C)(C)[C@@H]5CC[C@]43C)[C@@H]2C1" ) reads 15.2

Recorded inhibition of growth at 10 µM (compound "CC(C)=CC(=O)O[C@@H]1CC(C)(C)C[C@H]2C3=CC[C@@H]4[C@@]5(C)CC[C@H](O)C(C)(C)[C@@H]5CC[C@@]4(C)[C@]3(C)CC[C@@]12C(=O)O" ): 64.4

Kindly note the recorded inhibition of growth at 10 µM for "C/C=C(/C)C(=O)O[C@@H]1CC(C)(C)C[C@H]2C3=CC[C@@H]4[C@@]5(C)CC[C@H](O)C(C)(C)[C@@H]5CC[C@@]4(C)[C@]3(C)CC[C@@]12C(=O)O" , which is 70.5

----------
# System: SK-OV-3
# experiment: Growth inhibition of human SKOV3 cells by sulforhodamine B assay
# Format: functional
# test-parameters: read-out: pGI50 (converted)
attribute-measured: GI50 (µM)
The answer is to be given in µM; state only the numeric part.

Given item CC(C)=CC(=O)O[C@@H]1CC(C)(C)C[C@H]2C3=CC[C@@H]4[C@@]5(C)CC[C@H](O)C(C)(C)[C@@H]5CC[C@@]4(C)[C@]3(C)CC[C@@]12C(=O)O [Reduced Lantadene B] , the value recorded as its GI50 is 12.9

Briefly, GI50 measured for "CC(C)=CC(=O)O[C@@H]1CC(C)(C)C[C@H]2C3=CC[C@@H]4[C@@]5(C)CCC(=O)C(C)(C)[C@@H]5CC[C@@]4(C)[C@]3(C)CC[C@@]12C(=O)O" : 16.6

// sample C/C=C(/C)C(=O)O[C@@H]1CC(C)(C)C[C@H]2C3=CC[C@@H]4[C@@]5(C)CCC(=O)C(C)(C)[C@@H]5CC[C@@]4(C)[C@]3(C)CC[C@@]12C(=O)O [LANTADENE A] , its GI50 was 18.2

The measured GI50 associated with C/C=C(/C)C(=O)O[C@@H]1CC(C)(C)C[C@H]2C3=CC[C@@H]4[C@@]5(C)CC[C@H](O)C(C)(C)[C@@H]5CC[C@@]4(C)[C@]3(C)CC[C@@]12C(=O)O [Reduced Lantadene A] reads 1.86

Just so you know, measured GI50 for "CC1(C)C[C@@H](O)[C@]2(C(=O)O)CC[C@]3(C)C(=CC[C@@H]4[C@@]5(C)C/C(=C\C=C\c6ccccc6)C(=O)C(C)(C)[C@@H]5CC[C@]43C)[C@@H]2C1" came out at 3.8

Ref: ChEMBL document CHEMBL2413072
